Can you tell me Potency for the items I'm about to list?
# protocol_summary: Primary qHTS for inhibitors of nuclear receptor binding SET domain protein 2 (NSD2) in an isogenic RCH-ACV NSD2 p.E1099K mutant (9B) (AID 1645876); also: potency is read from the fitted curve at half-maximal effect; nearly all actives have a fitted effect of over 70% in size
# applied_conditions: RCH-ACV NSD2 E1099K (9B) viability, CellTiter-Glo, 72 h; series mostly up to 44.9 µM
Inconclusive results are not listed. Activity calls are given as the source filed them. Calls follow the shape of the dose curve; as a rule, active = well fitted inhibition curve with a large enough effect; inconclusive = small, poorly fitted or top-dose-only effect; inactive = flat fitted curve, though single readings scatter.

Noted for C=C1C(=O)O[C@@H]2/C=C(\C)CC/C=C(/C=O)[C@H](OC)[C@@H](OC(=O)C(C)C)[C@@H]12 : its Potency reads 8010 nM (active)

Looking up COc1cccc(-c2cc(F)ccc2C2Cc3nc(N)nc(C)c3C(=O)N2)n1 (stereo not drawn) , I see its Potency listed as 52.5 nM (active)

Query N#Cc1cc(-c2ccnc(Nc3ccc(N4CCOCC4)cc3)n2)ccc1OC1CCOCC1 yields Potency of 1450 nM (active)

---

# System: CRL-7250
# protocol_summary: Cytotoxic Profiling of Annotated Libraries Using Quantitative High-Throughput Screening (AID 1296008); also: nearly all actives have a fitted effect of over 60% in size
# applied_conditions: Five cell lines viability, CellTiter-Glo ATP luminescence, 48-72 h
Records with an inconclusive call do not appear. Calls of active or inactive are those of the source. Calls follow the shape of the dose curve; as a rule, active = well fitted inhibition curve with a large enough effect; inconclusive = small, poorly fitted or top-dose-only effect; inactive = flat fitted curve, though single readings scatter.
A correct response names exactly one class from yes for active, no for inactive

// outcome(item) with item = CC(C)(C)C1CCN(C(=O)n2ncc(C(O)(c3ccccc3)c3ccccc3)n2)CC1
no

Which outcome was assigned to C[C@@H]1O[C@@H](O[C@H]2[C@H](OC(=O)[C@]34CCC(C)(C)C[C@H]3C3=CCC5[C@@]6(C)C[C@H](O)[C@H](O[C@@H]7O[C@H](CO)[C@@H](O)[C@H](O)[C@H]7O)[C@](CO)(C(=O)O)C6CC[C@@]5(C)[C@]3(C)C[C@H]4O)OC[C@H](O)[C@@H]2O)[C@H](O)[C@H](O)[C@H]1O[C@@H]1OC[C@@H](O)[C@H](O[C@@H]2OC[C@](O)(CO)[C@H]2O)[C@H]1O (stereo partly specified) in this test?
yes

I would be grateful if you could indicate the recorded call for CC(=O)O[C@H]1CC(C)(C)CC2[C@]13CO[C@@]21CCC2[C@@]4(C)CC[C@H](O[C@@H]5OC[C@H](O[C@@H]6O[C@H](CO)[C@@H](O)[C@H](O)[C@H]6O[C@@H]6OC[C@@H](O[C@@H]7O[C@H](CO)[C@@H](O)[C@H](O)[C@H]7O)[C@H](O)[C@H]6O)[C@H](O)[C@H]5O[C@@H]5O[C@H](CO)[C@@H](O)[C@H](O)[C@H]5O)[C@@](C)(CO)C4CC[C@@]2(C)[C@]1(C)C[C@H]3O (stereo partly specified) .
yes

Hi, sorry to bother you, what did the test record for Cc1nc(C#Cc2ccnc(Cl)c2)c(C)n1-c1ccc(F)cc1 ?
yes

Tell me the assay call for COc1ccccc1-c1ccc(-c2cn(C(=O)N3CCCCC3Cc3ccccc3)nn2)cc1 (stereo unspecified) please.
no

I would be grateful if you could indicate the recorded call for COc1cc(NC(=O)c2cccc(-n3cc(NC(=O)Nc4cccc(C)c4)cn3)c2)cc(OC)c1OC .
no

Outcome? CC(=O)OC[C@]12[C@H](OC(C)=O)[C@H](OC(=O)c3ccccc3)[C@@H]3[C@@H](OC(C)=O)[C@]1(OC3(C)C)[C@H](C)C[C@H](OC(C)=O)[C@@H]2OC(=O)c1ccccc1
no

Tell me the assay call for CC#CC(=O)Nc1ccc2ncnc(Nc3cccc(Br)c3)c2c1 please.
yes

How was NC(=O)c1cccc2[nH]c(-c3ccc(C4CCCN4)cc3F)nc12 (stereo unspecified) classified in this test?
no

Tell me the assay call for Cc1nnc(C[C@@H]2C=C(c3ccc(Cl)cc3)c3ccccc3-n3c(C)nnc32)o1 please.
yes

Entry CC(C)(CO)c1cc2cc(NC(=O)C3(c4ccc5c(c4)OC(F)(F)O5)CC3)c(F)cc2n1CC(O)CO (stereo unspecified) : call = ?
no

---

# protocol_summary: Primary qHTS for inhibitors of nuclear receptor binding SET domain protein 2 (NSD2) in an RCH-ACV wild type WT cells (2C) (AID 1645877); also: nearly all actives have a fitted effect of over 70% in size
# applied_conditions: RCH-ACV (leukaemia line) NSD2 WT (2C) viability, CellTiter-Glo, 72 h; series mostly up to 44.9 µM
Records with an inconclusive call do not appear. The source made the active and inactive calls. The call rests on the fitted dose curve; in most records, active means well fitted inhibition curve with a large enough effect; inconclusive means small, poorly fitted or top-dose-only effect; inactive means no such curve, though single readings can be large or run the other way.
Outcomes you can answer with include only these: 1 = active, -1 = inactive

Which result was noted for this compound in the test: CC(C)CC(=O)c1c(O)cc2c(c1O)C(CC(C)C)C1=C(O2)C(C)(C)C(=O)C(C)(C)C1=O (centres undefined)
1

Hi, sorry to bother you, what did the test record for CS/C=C/C(=O)O[C@@H]1CCC2=CC(=O)C(=C(C)C)C[C@]2(C)[C@H]1C ?
1

Returns: the outcome recorded for C=CC(=O)N1CCC(Oc2cc3c(Nc4ccc(Cl)c(Cl)c4F)ncnc3cc2OC)CC1 in this assay.
1

Hey, what did the test say about COc1cc(CCc2ccc(OCC=C(C)C)cc2)cc(OC)c1OC ?
-1

Record lookup: outcome of this test for O=C(N[C@H]1CCC[C@H](CO)C1)C1CCN(c2nc3cc(Cl)c(-c4ccc(Cl)cc4)cc3o2)CC1 ?
1

GET /call?item= COc1cc2c(cc1OCCCN1CCCC1)N=C(N)C21CCC1 returns the recorded outcome of this test.
-1

Would you mind telling me which call this test gave COC1CCN(c2cccc(-c3cc(NC(C)=O)nc(-n4nc(C)cc4C)n3)n2)CC1 ?
1

# lookup: test call for CNS(=O)(=O)c1ccccc1Nc1nc(Nc2ccc(N3CCN(C)CC3)cc2OC)ncc1Br
1

Identify the outcome logged in this assay for the compound shown: CO[C@H]1[C@@H](O)[C@H](O[C@H]2CC[C@@]3(C)C(CCC4C3CC[C@]35COC6(COC(=O)C6)C3CCC45O)C2)O[C@@H](C)[C@@H]1OC1OC(CO)C(OC2OC(CO)C(O)C(O)C2O)C(O)C1O (some centres undefined)
1

Per the records of this test, what outcome belongs to O=C1C(Cc2ccc(O)cc2)N2C(=O)CCN(C(=O)NCc3ccccc3)C2CN1Cc1cccc2ccccc12 (centres undefined) ?
1

For Cc1ccc(F)cc1S(=O)(=O)N[C@@H]1CCN(Cc2ccc(OC(C)C)cc2)C1 , which call appears in the assay record?
1

Please let me know the test result on file for CN[C@@H]1[C@H](O[C@H]2[C@H](O[C@@H]3[C@@H](O)[C@H](O)[C@@H](N=C(N)N)[C@H](O)[C@H]3N=C(N)N)O[C@@H](C)[C@]2(O)CO)O[C@@H](CO)[C@H](O)[C@H]1O .
-1

Recorded call for CC(C)(C)c1ccc(C(=O)Nc2cc(Cl)c(Br)cc2C(=O)O)cc1 ?
1

Status in this test for C[C@@H](N[C@H]1CCCC[C@@H]1NC(=O)c1ccc(Cl)cc1)c1cccc2ccccc12 ?
1

Call for entry COc1cc(O)cc(OC2OC(CO)C(O)C(O)C2O)c1 (centres undefined) :
-1

Write down the call the test reported for this compound. Item: CCCCCc1ccc(/C=C/C(=O)Nc2cc(Cl)ccc2C(=O)O)cc1
-1

Hello, I am checking results. What call was entered for C=C1CCC2C(C)(C(=O)O)CCCC2(C)C1CCC1=CCOC1=O (centres undefined) ?
-1

# lookup: test call for CC(C)c1ccc(NC(=O)c2cccs2)c(-c2nc3ccccc3[nH]c2=O)c1
1

Which outcome was assigned to CCCCCCCCC(=O)N[C@H](CN1CCCC1)[C@H](O)c1ccc2c(c1)OCCO2 in this test?
1

Which result was noted for this compound in the test: COc1ccc2c(c1O[C@H]1CCNC1)CCC2
-1

Can you look up the reported call for C[C@@H]1CC[C@@]23CC[C@]4(C)[C@@](C=CC5[C@@]6(C)CC[C@H](O)C(C)(C)C6CC[C@]54C)(OC2=O)C3[C@H]1C (some centres undefined) for me?
-1

Hi, sorry to bother you, what did the test record for COc1ccnc(CS(=O)c2nc3cc(OC(F)F)ccc3[nH]2)c1OC (centres undefined) ?
-1

Test call for this compound, please: S=C(c1ccc(-c2ccc(Cl)c(Cl)c2)o1)N1CCCCC1
-1

Query: recorded result category for C=CC(C)(O)CC/C=C(\C)C(=O)OC1C(O)C(CO)OC(OC(=O)C23CCC(C)(C)CC2C2=CCC4C5(C)CCC(OC6OC(COC7OCC(OC(C)=O)C(O)C7OC7OC(COC(C)=O)C(O)C(O)C7OC(C)=O)C(O)C(O)C6OC6OCC(O)C(O)C6O)C(C)(C)C5CCC4(C)C2(C)C(O)C3O)C1OC1OCC(OC2OCC(O)C(OC3OCC(O)C(O)C3O)C2O)C(O)C1O (centres undefined) in this test
1

Please share the test call associated with C=C1CO[C@@]2(O[C@H]3CC4C5CC=C6C[C@@H](O)C[C@@H](O[C@@H]7OC[C@H](O)[C@H](O[C@@H]8OC[C@@H](O)[C@H](O)[C@H]8O)[C@H]7O[C@@H]7O[C@@H](C)[C@H](OC(C)=O)[C@@H](OC(C)=O)[C@H]7OC(C)=O)[C@]6(C)C5CC[C@]4(C)[C@@H]3[C@@H]2C)[C@@H](O)[C@H]1OC1OC(C)C(O)C(O)C1O (some centres undefined) .
1

// param item: Oc1cccc(C2NC(=S)Nc3cccc(F)c32)c1 (centres undefined) ; yields the recorded call
1

# lookup: test call for CC(C)(CNC(=O)c1cccc(-c2noc(C(F)(F)F)n2)c1)c1coc(-c2ccccc2)n1
1

Assay result, entry Cc1cc2ncc(C(=O)NCC(C)(C)NCC(=O)N3CCC[C@H]3C#N)cn2n1 — outcome?
-1

Can you look up the reported call for COc1cc(OC)c(NC(=O)c2ccc(Cc3cc4c(cc3C)C(C)(C)CCC4(C)C)o2)c(OC)c1 for me?
1

Value source: PubChem BioAssay (NCATS)
